Run description: Drug transport across human Caco-2 cells
Format: in vitro ADME
Assay setup: human, Caco-2; apical-to-basal, pH 7.2, 37° C.; read-out: PEAB
Result type: Papp A→B at 10 μM (×10⁻⁶ cm/s)

CC(=O)C1=C(C)N(c2cccc(C(F)(F)F)c2)C(=O)N(C)[C@@H]1c1ccc(C#N)cc1-c1ccc(=O)n(C)c1 | 12

[I] CC(=O)C1=C(C)N(c2cccc(C(F)(F)F)c2)C(=O)N(C)[C@@H]1c1ccc(C#N)cc1-c1ccn(C)c(=O)c1
[II] CC(=O)C1=C(C)N(c2cccc(C(F)(F)F)c2)C(=O)N(C)C1c1ccc(C#N)cc1C(=O)N1CCn2ncnc2C1 (stereo not drawn)
For the pair I and II , which member has the lower Papp A→B at 10 μM number? Use the label to indicate which entry you chose.
II
(II: 5.1 ×10⁻⁶ cm/s, I: 11 ×10⁻⁶ cm/s)

---

Recorded pIC50 for the following molecules
Experimental system: neutrophil elastase (Homo sapiens (Human))
Run description: Human Neutrophil Elastase Assay
Assay setup: substrate MeOSuc-Ala-Ala-Pro-Val-AMC
pIC50: −log10 of the molar value.

Here are 2 molecules together with their reported answers.
CC(=O)C1=C(C)N(c2cccc(C(F)(F)F)c2)C(=O)N(C)C1c1ccc(C#N)cc1C(=O)NC1CCS(=O)(=O)C1 (stereo not drawn) | > 9.00
CC(=O)C1=C(C)N(c2cccc(C(F)(F)F)c2)C(=O)N(C)C1c1ccc(C#N)cc1C(=O)NCc1cn[nH]c1 (stereo not drawn) | > 9.00

// next item, pIC50 requested
// pIC50 lookup, molecule = CC(=O)C1=C(C)N(c2cccc(C(F)(F)F)c2)C(=O)N(C)[C@@H]1c1ccc(C#N)cc1C(=O)NC1CC1 , result: > 9.00

---

Let's look at some compounds and their measured IC50.
Experimental system: neutrophil elastase (Homo sapiens (Human), UniProt P08246)
Sequence (P08246 30-247): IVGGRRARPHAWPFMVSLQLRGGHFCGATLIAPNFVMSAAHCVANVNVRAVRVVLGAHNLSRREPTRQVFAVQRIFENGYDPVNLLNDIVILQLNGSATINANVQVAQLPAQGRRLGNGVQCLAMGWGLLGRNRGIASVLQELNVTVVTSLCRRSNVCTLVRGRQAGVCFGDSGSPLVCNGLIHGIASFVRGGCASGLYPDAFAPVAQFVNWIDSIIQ
Run description: Human Neutrophil Elastase Assay
Assay setup: substrate MeOSuc-Ala-Ala-Pro-Val-AMC

CC(=O)C1=C(C)N(c2cccc(C(F)(F)F)c2)C(=O)N(C)C1c1ccc(C#N)cc1C(=O)N(C)Cc1nncn1C (stereo not shown) | < 1 nM

Sample CC(=O)C1=C(C)N(c2cccc(C(F)(F)F)c2)C(=O)N(C)C1c1ccc(C#N)cc1C(=O)NC1CCN(C(C)C)C1 (stereo not shown) , system: neutrophil elastase (Homo sapiens (Human), UniProt P08246). Its IC50 is 1.2 nM

For the compound CC(=O)C1=C(C)N(c2cccc(C(F)(F)F)c2)C(=O)N(C)C1c1ccc(C#N)cc1C(=O)NCCS(C)(=O)=O (stereo not shown) , the measured IC50 on neutrophil elastase (Homo sapiens (Human), UniProt P08246) was < 1 nM

neutrophil elastase (Homo sapiens (Human), UniProt P08246) data for CCOC(=O)C1=C(C)N(c2cccc(C(F)(F)F)c2)C(=O)N(C)C1c1ccc(C#N)cc1C(=O)NCCS(C)(=O)=O (stereo not shown) ; its IC50: 1.1 nM

---

Experimental system: neutrophil elastase (Homo sapiens (Human), UniProt P08246)
Run description: Human Neutrophil Elastase Assay
Assay setup: substrate MeOSuc-Ala-Ala-Pro-Val-AMC
Protocol: Human Neutrophil Elastase Assay All other materials were of the highest grade commercially available. […] Assay conditions: Test compounds were prediluted in DMSO and subsequently in compound buffer (5% DMSO final). […] After inactivation of the enzyme, fluorescence intensities were measured at 380 nm excitation and 460 nm emission wavelengths. […]
Result type: IC50

CC(=O)C1=C(C)N(c2cccc(C(F)(F)F)c2)C(=O)N(C)C1c1ccc(C#N)cc1C(=O)N1CCCC1 (stereo not drawn) | < 1 nM
COCCN(C)C(=O)c1cc(C#N)ccc1C1C(C(C)=O)=C(C)N(c2cccc(C(F)(F)F)c2)C(=O)N1C (stereo not drawn) | < 1 nM

Value of measured IC50 for the entry CC(=O)C1=C(C)N(c2cccc(C(F)(F)F)c2)C(=O)N(C)C1c1ccc(C#N)cc1-c1ncc(C)o1 (stereo not drawn) : < 1 nM

---

Experimental system: neutrophil elastase (Homo sapiens (Human), UniProt P08246)
Run description: Human Neutrophil Elastase Assay
Assay setup: substrate MeOSuc-Ala-Ala-Pro-Val-AMC
pIC50: −log10 of the molar value.
Result type: pIC50

Some solved entries appear below for comparison.
CC(=O)C1=C(C)N(c2cccc(C(F)(F)F)c2)C(=O)N(C)C1c1ccc(C#N)cc1C(N)=O (centres unmarked) [Example 1] | > 9.00
CCOC(=O)C1=C(C)N(c2cccc(C(F)(F)F)c2)C(=O)N(C)C1c1ccc(C#N)cc1C(=O)NC1(C#N)CC1 (centres unmarked) [Example 3.1] | > 9.00
CCOC(=O)C1=C(C)N(c2cccc(C(F)(F)F)c2)C(=O)N(C)C1c1ccc(C#N)cc1C(=O)N(C)CCCOC (centres unmarked) [Example 3.30] | 8.96
CC(=O)C1=C(C)N(c2cccc(C(F)(F)F)c2)C(=O)N(C)C1c1ccc(C#N)cc1C(=O)NCc1cncn1C (centres unmarked) [Example 1.52] | > 9.00

Reported pIC50 ( CC(=O)C1=C(C)N(c2cccc(C(F)(F)F)c2)C(=O)N(C)C1c1ccc(C#N)cc1C(=O)N1CC[C@H](N(C)C)C1 (some centres unmarked) [Example 1.64] ) = > 9.00

Form field pIC50, entry CCOC(=O)C1=C(C)N(c2cccc(C(F)(F)F)c2)C(=O)N(C)C1c1ccc(C#N)cc1C(=O)NCC#N (centres unmarked) [Example 3.7] : 8.52

// pIC50 value for CCOC(=O)C1=C(C)N(c2cccc(C(F)(F)F)c2)C(=O)N(C)C1c1ccc(C#N)cc1C(=O)N1CCn2cnnc2C1 (centres unmarked) [Example 3.41] : > 9.00

// CCOC(=O)C1=C(C)N(c2cccc(C(F)(F)F)c2)C(=O)N(C)C1c1ccc(C#N)cc1C(=O)N1C[C@H]2C[C@@H]1CN2 (some centres unmarked) [Example 4.1] : pIC50 value = 8.62

Consider CCOC(=O)C1=C(C)N(c2cccc(C(F)(F)F)c2)C(=O)N(C)C1c1ccc(C#N)cc1C(=O)N1CC(O)C1 (centres unmarked) [Example 3.13] . Its measured pIC50 is > 9.00

The measured pIC50 associated with CC(=O)C1=C(C)N(c2cccc(C(F)(F)F)c2)C(=O)N(C)C1c1ccc(C#N)cc1-c1nnco1 (centres unmarked) [Example 6] reads > 9.00

So for CC(=O)C1=C(C)N(c2cccc(C(F)(F)F)c2)C(=O)N(C)C1c1ccc(C#N)cc1C1=CCNCC1 (centres unmarked) [Example 10] , the logged pIC50 turned out to be > 9.00

Looking up CCOC(=O)C1=C(C)N(c2cccc(C(F)(F)F)c2)C(=O)N(C)C1c1ccc(C#N)cc1C(=O)N(C)CCN(C)C (centres unmarked) [Example 3.36] , I found its pIC50 recorded as > 9.00

# pIC50 of CC(=O)C1=C(C)N(c2cccc(C(F)(F)F)c2)C(=O)N(C)C1c1ccc(C#N)cc1C(=O)N(C)Cc1nccn1C (centres unmarked) [Example 1.75] = > 9.00

Lab note: CC(=O)C1=C(C)N(c2cccc(C(F)(F)F)c2)C(=O)N(C)C1c1ccc(C#N)cc1C(=O)NCc1cnco1 (centres unmarked) [Example 1.40] gave pIC50 of > 9.00

---

Experimental system: neutrophil elastase (Homo sapiens (Human), UniProt P08246)
Run description: Human Neutrophil Elastase Assay
Assay setup: substrate MeOSuc-Ala-Ala-Pro-Val-AMC
# IC50 values compiled below

Consider the following illustrative entries.
CCOC(=O)C1=C(C)N(c2cccc(C(F)(F)F)c2)C(=O)N(C)C1c1ccc(C#N)cc1C(=O)NC1CCC(O)C1 (stereo not drawn) | 1.3 nM
CC(=O)C1=C(C)N(c2cccc(C(F)(F)F)c2)C(=O)N(C)[C@@H]1c1ccc(C#N)cc1C(=O)NCC#N | < 1 nM
CCOC(=O)C1=C(C)N(c2cccc(C(F)(F)F)c2)C(=O)N(C)C1c1ccc(C#N)cc1-c1cnoc1 (stereo not drawn) | < 1 nM
C#CCNC(=O)c1cc(C#N)ccc1C1C(C(C)=O)=C(C)N(c2cccc(C(F)(F)F)c2)C(=O)N1C (stereo not drawn) | < 1 nM
CC(=O)C1=C(C)N(c2cccc(C(F)(F)F)c2)C(=O)N(C)C1c1ccc(C#N)cc1C(=O)NC1(C#N)CC1 (stereo not drawn) | < 1 nM
COCCCNC(=O)c1cc(C#N)ccc1C1C(C(C)=O)=C(C)N(c2cccc(C(F)(F)F)c2)C(=O)N1C (stereo not drawn) | < 1 nM

IC50 reported for this compound CC(=O)C1=C(C)N(c2cccc(C(F)(F)F)c2)C(=O)N(C)C1c1ccc(C#N)cc1C(=O)N1CCn2cnnc2C1 (stereo not drawn) : < 1 nM

The compound identified as CCOC(=O)C1=C(C)N(c2cccc(C(F)(F)F)c2)C(=O)N(C)C1c1ccc(C#N)cc1C(=O)NC1CC1 (stereo not drawn) registered its IC50 at 3 nM

Given item CNCCN(C)C(=O)c1cc(C#N)ccc1C1C(C(C)=O)=C(C)N(c2cccc(C(F)(F)F)c2)C(=O)N1C (stereo not drawn) , the value recorded as its IC50 is < 1 nM

This collection of values is drawn from patent US9290457B2.
